Below, each entry is listed with its recorded pKi.
Molecular target: Cannabinoid receptor 2 (Homo sapiens)
Sequence (P34972 whole entry): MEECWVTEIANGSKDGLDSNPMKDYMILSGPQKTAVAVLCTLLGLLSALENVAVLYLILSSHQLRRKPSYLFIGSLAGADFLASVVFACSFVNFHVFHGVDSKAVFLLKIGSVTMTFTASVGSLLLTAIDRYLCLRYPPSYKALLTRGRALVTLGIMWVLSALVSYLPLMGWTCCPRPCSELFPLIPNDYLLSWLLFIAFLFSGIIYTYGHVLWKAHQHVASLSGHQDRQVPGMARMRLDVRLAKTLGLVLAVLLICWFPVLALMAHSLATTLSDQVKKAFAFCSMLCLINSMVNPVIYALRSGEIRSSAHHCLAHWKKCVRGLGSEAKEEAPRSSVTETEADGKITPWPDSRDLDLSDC
pKi: −log10 of the molar value.

SMILES DATA: COc1cccc2c(C(=O)N3CCN(C)[C@@H](C)C3)cn(CC3CCCCC3)c12.Cl
pKi: 8.80

SMILES DATA: COc1cccc2c(C(=O)N3C[C@@H](C)N(C)[C@@H](C)C3)cn(CC3CCCCC3)c12.Cl
pKi: 9.10

----------
Test: Aqueous solubility of the compound in phosphate buffered saline at pH 6.7 by shake-flask method
Assay type: physicochemical

SMILES DATA: CCN1CCN(C(=O)c2cn(CC3CCCCC3)c3c(OC)cccc23)CC1.O=C(O)/C=C\C(=O)O
solubility thermodynamic [mg/mL]: 0.216
